# Tested on: ATF4 luciferase reporter in HEK293T cells
# method: ATF4-Luc assay (in vitro model of VWMD)
# Format: cell-based, human
# run conditions: Homo sapiens, HEK-293T, 7 h, HEK293T cells carrying the ATF4 luciferase reporter, 1 μg/mL tunicamycin, One Glo luminescence
Overview of recorded EC50 for various molecules

Known results for molecules:
- molecule: "O=C(N[C@H]1CC[C@H](n2cc(OCCCC(F)(F)F)cn2)CC1)[C@H]1C[C@@H](O)c2cc(Cl)ccc2O1"
  EC50: "0.01 to 0.05 µM"
- molecule: "O=C(NC12CC(n3cc(-c4cnn(CC(F)(F)F)c4)cn3)(C1)C2)[C@H]1C[C@@H](O)c2cc(Cl)c(F)cc2O1"
  EC50: "< 0.01 µM"
- molecule: "O=C(COc1ccc(Cl)c(F)c1)N[C@H]1CC[C@H](n2cc(C(=O)N3CC[C@H](OC(F)(F)F)C3)cn2)CC1"
  EC50: "< 0.01 µM"
- molecule: "Cn1nc(C23CC(NC(=O)COc4ccc(Cl)c(F)c4)(C2)C3)cc1OC[C@H]1C[C@@H](OC(F)(F)F)C1"
  EC50: "0.05 to 0.25 µM"

Then this molecule:
Input: Under ATF4 luciferase reporter in HEK293T cells: EC50 value of Cc1cc(C)cc(OCC2CN(C34CC(NC(=O)[C@H]5CC(=O)c6cc(Cl)ccc6O5)(C3)C4)C(=O)O2)c1 (some centres unmarked) ?
Output: > 2 µM
